Data origin: patent US20100267561A1

test system: winter barley (Hordeum vulgare); test: Test C pre-/postemergence plant response; type: in vivo; conditions: Preemergence, 31 g ai/ha; scale 0 to 100 (0 no effect, 100 complete control)
readout.label: Plant response rating, Barley, Winter

Here are 4 molecules together with their reported answers.
[
  {
    "molecule": "Cc1nn(C)c(=O)c(-n2nc(-c3ccc(Cl)cc3)cc2C)c1O [Compound 15]",
    "assay.target": "winter barley (Hordeum vulgare)",
    "recorded.result": 50
  },
  {
    "molecule": "Cc1cc(-c2ccc(Cl)cc2)nn1-c1c(OC(=O)c2cccs2)cnn(C)c1=O [Compound 52]",
    "assay.target": "winter barley (Hordeum vulgare)",
    "recorded.result": 0
  },
  {
    "molecule": "CCCc1cc(-c2ccc(Cl)cc2)nn1-c1c(O)cnn(C)c1=O [Compound 43]",
    "assay.target": "winter barley (Hordeum vulgare)",
    "recorded.result": 50
  },
  {
    "molecule": "Cc1cc(-c2ccc(Cl)cc2)nn1-c1c(OS(=O)(=O)c2ccccc2)cnn(C)c1=O [Compound 35]",
    "assay.target": "winter barley (Hordeum vulgare)",
    "recorded.result": 0
  }
]

Next molecule, please.
Lab book: Plant response rating, Barley, Winter of Cc1cc(-c2ccc(Cl)cc2)nn1-c1c(OS(=O)(=O)c2cccc3ccccc23)cnn(C)c1=O [Compound 47] noted as 40

----------
test system: Italian ryegrass (Lolium multiflorum); assay: Test B pre-/postemergence plant response; format: in vivo; settings: Preemergence; 16 g ai/ha; scale 0 to 100
readout.label: Ryegrass, Italian plant response rating
Write the number on its own, no unit after it.

[
  {
    "molecule": "CCCc1cc(-c2ccc(C(F)(F)F)cc2)nn1-c1c(O)cnn(C)c1=O",
    "recorded.result": 90
  },
  {
    "molecule": "Cc1cc(-c2ccc(Cl)cc2)nn1-c1c(OC(=O)c2cccs2)cnn(C)c1=O",
    "recorded.result": 95
  },
  {
    "molecule": "CCc1cc(-c2ccc(C(F)(F)F)cc2)nn1-c1c(O)c(OC)nn(C)c1=O",
    "recorded.result": 100
  },
  {
    "molecule": "CCCc1cc(-c2ccc(Cl)cc2)nn1-c1c(O)cnn(C)c1=O",
    "recorded.result": 75
  }
]

Next molecule, please.
Lab book: Ryegrass, Italian plant response rating of "CCOC(=O)Oc1cnn(C)c(=O)c1-n1nc(-c2ccc(Cl)cc2)cc1C" noted as 100

----------
test system: corn (Zea mays); test: Test B pre-/postemergence plant response; type: in vivo; conditions: Postemergence, 31 g ai/ha; scale 0 to 100
In this section we review reported Plant response rating, Corn values for a set of molecules.
Write the number on its own, no unit after it.

[
  {
    "molecule": "CCOC(=O)Oc1cnn(C)c(=O)c1-n1nc(-c2ccc(Cl)cc2)cc1C",
    "Plant response rating, Corn": 100
  }
]

Plant response rating, Corn value, target or system corn (Zea mays), for "CCCc1cc(-c2ccc(C(F)(F)F)cc2)nn1-c1c(O)cnn(C)c1=O" : 90

Plant response rating, Corn value, target or system corn (Zea mays), for "CCc1cc(-c2ccc(C(F)(F)F)cc2)nn1-c1c(O)c(OC)nn(C)c1=O" : 90

Plant response rating, Corn value, target or system corn (Zea mays), for "Cn1ncc(O)c(-n2nc(-c3ccc(Cl)cc3)cc2C2CC2)c1=O" : 95

----------
system: giant foxtail (Setaria faberii); assay: Test B pre-/postemergence plant response; format: in vivo; conditions: Postemergence, 62 g ai/ha; scale 0 to 100, 0 no effect, 100 complete control
readout.label: Plant response rating, Foxtail, Giant
Write the number on its own, no unit after it.

Lab book: Plant response rating, Foxtail, Giant of CCc1cc(-c2ccc(Br)cc2)nn1-c1c(O)c(C)nn(C)c1=O [Compound 74] noted as 98

Lab book: Plant response rating, Foxtail, Giant of CCc1cc(-c2ccc(Br)cc2)nn1-c1c(O)cnn(CC(F)(F)F)c1=O [Compound 73] noted as 100

----------
tested on: goosegrass (Eleusine indica); experiment: Test E pre-/postemergence plant response; type: in vivo; settings: Postemergence, 31 g ai/ha; scale 0 to 100
readout.label: Plant response rating, Goosegrass

[
  {
    "molecule": "CCc1cc(-c2ccc(Cl)cc2)nn1-c1c(O)cnn(C)c1=O",
    "Plant response rating, Goosegrass": 90
  },
  {
    "molecule": "CCCc1cc(-c2ccc(Cl)cc2)nn1-c1c(O)cnn(C)c1=O",
    "Plant response rating, Goosegrass": 75
  },
  {
    "molecule": "Cc1cc(-c2ccc(Cl)cc2)nn1-c1c(OC(=O)c2cccc(Cl)c2)cnn(C)c1=O",
    "Plant response rating, Goosegrass": 60
  }
]

Next molecule, please.
Plant response rating, Goosegrass value, target or system goosegrass (Eleusine indica), for "Cc1cc(-c2ccc(Cl)cc2)nn1-c1c(OS(=O)(=O)c2ccccc2)cnn(C)c1=O" : 40

----------
In this section we review reported Plant response rating, Crabgrass, Large values for a set of molecules.
system: large crabgrass (Digitaria sanguinalis); assay: Test B pre-/postemergence plant response; format: in vivo; conditions: Postemergence, 62 g ai/ha; scale 0 to 100, 0 no effect, 100 complete control
Write the number on its own, no unit after it.

Here are 2 molecules together with their reported answers.
[
  {
    "molecule": "Cc1cc(-c2ccc(Cl)cc2)nn1-c1c(OS(=O)(=O)c2ccccc2)cnn(C)c1=O",
    "recorded.result": 100
  },
  {
    "molecule": "Cc1cc(-c2ccc(Cl)cc2)nn1-c1c(OC(=O)c2cccc(Cl)c2)cnn(C)c1=O",
    "recorded.result": 98
  }
]

Plant response rating, Crabgrass, Large value, target or system large crabgrass (Digitaria sanguinalis), for "Cc1cc(-c2ccc(Cl)cc2)nn1-c1c(OC(=O)Oc2ccccc2)cnn(C)c1=O" : 98

Plant response rating, Crabgrass, Large value, target or system large crabgrass (Digitaria sanguinalis), for "CCOC(=O)Oc1cnn(C)c(=O)c1-n1nc(-c2ccc(Cl)cc2)cc1C" : 100

Plant response rating, Crabgrass, Large value, target or system large crabgrass (Digitaria sanguinalis), for "Cc1cc(-c2ccc(Cl)cc2)nn1-c1c(OC(=O)CC(C)C)cnn(C)c1=O" : 100

----------
test system: blackgrass (Alopecurus myosuroides); experiment: Test B pre-/postemergence plant response; format: in vivo; details: Postemergence, 16 g ai/ha; scale 0 to 100
readout.label: Plant response rating, Blackgrass
Write the number on its own, no unit after it.

Here are 6 compounds together with their reported answers.
[
  {
    "molecule": "CCc1cc(-c2ccc(Br)cc2)nn1-c1c(O)cnn(CC(F)(F)F)c1=O",
    "Plant response rating, Blackgrass": 100
  },
  {
    "molecule": "Cc1cc(-c2ccc(C(F)(F)F)c(F)c2)nn1-c1c(O)c(C(F)(F)F)nn(C)c1=O",
    "Plant response rating, Blackgrass": 90
  },
  {
    "molecule": "CCc1cc(-c2ccc(Br)cc2)nn1-c1c(O)c(C)nn(C)c1=O",
    "Plant response rating, Blackgrass": 95
  },
  {
    "molecule": "CCCc1cc(-c2ccc(C(F)(F)F)cc2)nn1-c1c(O)cnn(C)c1=O",
    "Plant response rating, Blackgrass": 95
  },
  {
    "molecule": "Cc1cc(-c2ccc(Cl)cc2)nn1-c1c(OS(=O)(=O)c2ccccc2)cnn(C)c1=O",
    "Plant response rating, Blackgrass": 60
  },
  {
    "molecule": "Cc1cc(-c2ccc(Cl)cc2)nn1-c1c(OC(=O)c2cccc(Cl)c2)cnn(C)c1=O",
    "Plant response rating, Blackgrass": 35
  }
]

Lab book: Plant response rating, Blackgrass of "Cc1cc(-c2ccc(Cl)cc2)nn1-c1c(OC(=O)CC(C)C)cnn(C)c1=O" noted as 75

Lab book: Plant response rating, Blackgrass of "Cc1cc(-c2ccc(Cl)cc2)nn1-c1c(OC(=O)c2ccccc2Cl)cnn(C)c1=O" noted as 40

----------
In this section we review reported Cupgrass, Woolly plant response rating values for a set of molecules.
tested on: woolly cupgrass (Eriochloa villosa); assay: Test B pre-/postemergence plant response; type: in vivo; conditions: 8 g ai/ha, postemergence; 0-100 scale
Write the number on its own, no unit after it.

[
  {
    "molecule": "Cc1nn(C)c(=O)c(-n2nc(-c3ccc(Cl)cc3)cc2Cl)c1O",
    "assay.target": "woolly cupgrass (Eriochloa villosa)",
    "recorded.result": 55
  },
  {
    "molecule": "CCOC(=O)Oc1cnn(C)c(=O)c1-n1nc(-c2ccc(Cl)cc2)cc1C",
    "assay.target": "woolly cupgrass (Eriochloa villosa)",
    "recorded.result": 85
  },
  {
    "molecule": "CCCc1cc(-c2ccc(C(F)(F)F)cc2)nn1-c1c(O)cnn(C)c1=O",
    "assay.target": "woolly cupgrass (Eriochloa villosa)",
    "recorded.result": 55
  }
]

Lab book: Cupgrass, Woolly plant response rating of "Cc1cc(-c2ccc(Cl)cc2)nn1-c1c(OC(=O)c2cccc(Cl)c2)cnn(C)c1=O" noted as 75

Lab book: Cupgrass, Woolly plant response rating of "Cc1nn(C)c(=O)c(-c2nc(-c3ccc(Cl)cc3)sc2C)c1O" noted as 60

Lab book: Cupgrass, Woolly plant response rating of "COc1nn(C)c(=O)c(-n2nc(-c3ccc(Br)cc3)cc2C)c1O" noted as 85
